Source listed as ChEMBL document CHEMBL5291721.

SUBJECT_OF_TEST: Synaptic vesicular amine transporter (Rattus norvegicus, UniProt Q01827)
Sequence (Q01827 whole entry): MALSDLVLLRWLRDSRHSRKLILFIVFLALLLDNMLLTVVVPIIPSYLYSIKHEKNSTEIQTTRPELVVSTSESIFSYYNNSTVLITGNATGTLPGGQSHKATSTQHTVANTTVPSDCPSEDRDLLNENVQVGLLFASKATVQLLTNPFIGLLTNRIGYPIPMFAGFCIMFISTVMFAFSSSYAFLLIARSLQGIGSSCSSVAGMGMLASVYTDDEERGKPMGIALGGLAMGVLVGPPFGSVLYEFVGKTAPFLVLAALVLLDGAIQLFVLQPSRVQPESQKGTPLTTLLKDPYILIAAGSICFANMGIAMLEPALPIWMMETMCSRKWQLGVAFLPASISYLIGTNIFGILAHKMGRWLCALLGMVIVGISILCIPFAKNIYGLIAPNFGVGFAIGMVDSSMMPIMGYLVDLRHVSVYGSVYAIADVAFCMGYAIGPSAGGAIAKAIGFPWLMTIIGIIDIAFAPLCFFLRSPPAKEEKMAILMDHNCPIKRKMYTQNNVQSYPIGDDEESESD
Assay type: functional
Recorded AC50, one value per entry.

OC[C@@H](O)[C@@H](O)[C@H](O)[C@H](O)CO : > 30 µM
CC(C)OC(=O)[C@H](C)N[P@](=O)(OC[C@H]1O[C@@H](n2ccc(=O)[nH]c2=O)[C@](C)(F)[C@@H]1O)Oc1ccccc1 : > 30 µM
COc1cc2c(cc1OC)[C@H]1C[C@@H](OC(=O)[C@@H](N)C(C)C)[C@H](CC(C)C)CN1CC2 : 0.46 µM
CN1C(=O)CC(C)(c2ccccc2)C1=O (stereo not given) [METHSUXIMIDE] : > 30 µM

Here's the next entry for you.
Reported AC50 for CCC[C@@H]1C[C@@H](C(=O)N[C@@H]([C@H]2O[C@H](SC)[C@H](O)[C@@H](O)[C@H]2O)[C@H](C)Cl)N(C)C1 was > 30 µM

---

SUBJECT_OF_TEST: Substance-P receptor (Homo sapiens, UniProt P25103)
Sequence (P25103 whole entry): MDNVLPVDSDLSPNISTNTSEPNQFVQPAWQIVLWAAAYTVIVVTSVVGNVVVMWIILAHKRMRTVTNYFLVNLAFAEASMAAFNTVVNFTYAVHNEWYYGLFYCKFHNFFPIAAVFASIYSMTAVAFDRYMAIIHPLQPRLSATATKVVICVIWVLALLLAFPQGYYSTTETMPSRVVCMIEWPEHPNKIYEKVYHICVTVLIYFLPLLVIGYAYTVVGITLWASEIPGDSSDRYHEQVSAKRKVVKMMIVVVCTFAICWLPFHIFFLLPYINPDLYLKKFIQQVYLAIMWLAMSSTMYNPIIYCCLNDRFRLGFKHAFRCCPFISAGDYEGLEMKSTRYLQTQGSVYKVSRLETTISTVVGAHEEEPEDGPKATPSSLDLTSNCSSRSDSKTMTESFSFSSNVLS
READOUT: AC50

Solved entries (count: 3):
CCN(CC)CCNC(=O)c1cc(Cl)c(N)cc1OC [METOCLOPRAMIDE] : > 10 µM
O=C1CCC(N2C(=O)c3ccccc3C2=O)C(=O)N1 (stereo not given) [THALIDOMIDE] : > 10 µM
CCCCCN(C)CCC(O)(P(=O)(O)O)P(=O)(O)O : > 10 µM

Bench note, Substance-P receptor (Homo sapiens, UniProt P25103): entry CN[C@@H](C)[C@H](O)c1ccccc1 , its AC50 = > 10 µM

Bench note, Substance-P receptor (Homo sapiens, UniProt P25103): entry COc1cc(Nc2c(C#N)cnc3cc(OCCCN4CCN(C)CC4)c(OC)cc23)c(Cl)cc1Cl , its AC50 = 8 µM

---

Assay read-out AC50; system under study: Histamine H3 receptor (Homo sapiens). Also: assay procedure not described here.
Sequence (Q9Y5N1 whole entry): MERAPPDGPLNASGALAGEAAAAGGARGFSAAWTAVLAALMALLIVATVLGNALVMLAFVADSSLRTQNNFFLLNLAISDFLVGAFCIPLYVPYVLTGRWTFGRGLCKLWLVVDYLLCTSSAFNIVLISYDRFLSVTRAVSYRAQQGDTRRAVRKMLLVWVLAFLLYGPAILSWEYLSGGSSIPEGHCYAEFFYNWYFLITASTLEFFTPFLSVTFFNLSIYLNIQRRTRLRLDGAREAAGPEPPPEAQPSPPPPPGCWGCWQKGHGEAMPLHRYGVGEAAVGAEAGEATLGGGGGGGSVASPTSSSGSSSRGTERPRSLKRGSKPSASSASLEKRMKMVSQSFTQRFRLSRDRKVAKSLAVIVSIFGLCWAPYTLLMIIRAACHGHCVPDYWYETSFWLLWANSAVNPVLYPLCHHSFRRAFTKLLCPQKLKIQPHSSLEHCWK

CCCCCOC(=O)Nc1nc(=O)n([C@@H]2O[C@H](C)[C@@H](O)[C@H]2O)cc1F : > 30 µM

Reported AC50 for COC(=O)[C@@H]1CC2=CC(=O)CC[C@]2(C)[C@@]23O[C@@H]2C[C@@]2(C)[C@@H](CC[C@@]24CCC(=O)O4)[C@H]13 was > 30 µM

Reported AC50 for O=C(O)CCn1c2c(c3ccccc31)C[C@H](NS(=O)(=O)c1ccc(F)cc1)CC2 was > 30 µM

Reported AC50 for CC(C)c1c(C(=O)Nc2ccccc2)c(-c2ccccc2)c(-c2ccc(F)cc2)n1CC[C@@H](O)C[C@@H](O)CC(=O)O was > 10 µM

---

SUBJECT_OF_TEST: Cannabinoid receptor 1 (Homo sapiens)
Sequence (P21554 whole entry): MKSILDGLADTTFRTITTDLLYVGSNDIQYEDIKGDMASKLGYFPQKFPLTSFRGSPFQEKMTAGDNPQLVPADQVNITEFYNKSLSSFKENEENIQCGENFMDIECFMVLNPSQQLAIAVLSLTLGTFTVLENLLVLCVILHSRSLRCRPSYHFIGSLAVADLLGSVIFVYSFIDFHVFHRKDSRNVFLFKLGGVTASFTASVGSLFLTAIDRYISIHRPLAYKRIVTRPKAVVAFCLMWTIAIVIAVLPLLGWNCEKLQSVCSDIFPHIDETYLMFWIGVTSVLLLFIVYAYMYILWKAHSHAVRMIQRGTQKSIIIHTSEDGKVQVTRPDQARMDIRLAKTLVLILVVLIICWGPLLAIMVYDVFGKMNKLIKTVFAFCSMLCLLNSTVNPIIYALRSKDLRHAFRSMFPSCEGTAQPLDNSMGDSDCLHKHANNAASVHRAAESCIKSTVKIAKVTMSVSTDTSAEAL
Recorded AC50, one value per entry.

Solved entries (count: 5):
Cc1cc(-c2ccccc2)nnc1NCCN1CCOCC1 : 9.5 µM
C#CC1(OC(N)=O)CCCCC1 [ETHINAMATE] : > 10 µM
Oc1ncnc2[nH]ncc12 : > 10 µM
CC(Cc1ccccc1)NCCC(c1ccccc1)c1ccccc1 (stereo unspecified) : 7.95 µM
CN1C(=O)CC(=O)N(c2ccccc2)c2cc(Cl)ccc21 : > 10 µM

Here's the next entry for you.
Reported AC50 for CCNC(C)Cc1cccc(C(F)(F)F)c1 (stereo unspecified) was > 10 µM

---

Recorded AC50, one value per entry.
SUBJECT_OF_TEST: Kappa-type opioid receptor (Homo sapiens)
Sequence (P41145 whole entry): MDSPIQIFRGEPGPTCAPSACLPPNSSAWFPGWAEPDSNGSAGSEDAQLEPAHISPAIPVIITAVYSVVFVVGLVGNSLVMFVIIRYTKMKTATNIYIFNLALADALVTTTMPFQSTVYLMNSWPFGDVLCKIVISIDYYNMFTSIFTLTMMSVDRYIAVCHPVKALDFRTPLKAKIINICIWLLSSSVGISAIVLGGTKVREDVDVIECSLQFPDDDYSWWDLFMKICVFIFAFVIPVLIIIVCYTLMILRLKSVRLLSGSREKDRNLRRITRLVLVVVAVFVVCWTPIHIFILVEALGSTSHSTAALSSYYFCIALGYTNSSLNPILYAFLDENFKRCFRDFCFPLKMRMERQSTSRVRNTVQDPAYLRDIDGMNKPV

CN(C)C(=O)OC1N=C(c2ccccc2)c2cc(Cl)ccc2N(C)C1=O (configuration not stated) [CAMAZEPAM] : > 10 µM
COc1c(N2CCNC(C)C2)c(F)cc2c(=O)c(C(=O)O)cn(C3CC3)c12 (configuration not stated) [GATIFLOXACIN] : > 10 µM
CN1C(=O)CC(c2ccccc2)C1=O (configuration not stated) [PHENSUXIMIDE] : > 10 µM
COC(=O)N[C@H](C(=O)N[C@@H](Cc1ccccc1)[C@@H](O)CN(Cc1ccc(-c2ccccn2)cc1)NC(=O)[C@@H](NC(=O)OC)C(C)(C)C)C(C)(C)C [ATAZANAVIR] : 1.06 µM

Here's the next entry for you.
Bench note, Kappa-type opioid receptor (Homo sapiens): entry CC(Cc1ccccc1)NCCC(c1ccccc1)c1ccccc1 (configuration not stated) [PRENYLAMINE] , its AC50 = 0.382 µM

---

SUBJECT_OF_TEST: 3',5'-cyclic-AMP phosphodiesterase 4A (Homo sapiens)
Sequence (P27815 whole entry): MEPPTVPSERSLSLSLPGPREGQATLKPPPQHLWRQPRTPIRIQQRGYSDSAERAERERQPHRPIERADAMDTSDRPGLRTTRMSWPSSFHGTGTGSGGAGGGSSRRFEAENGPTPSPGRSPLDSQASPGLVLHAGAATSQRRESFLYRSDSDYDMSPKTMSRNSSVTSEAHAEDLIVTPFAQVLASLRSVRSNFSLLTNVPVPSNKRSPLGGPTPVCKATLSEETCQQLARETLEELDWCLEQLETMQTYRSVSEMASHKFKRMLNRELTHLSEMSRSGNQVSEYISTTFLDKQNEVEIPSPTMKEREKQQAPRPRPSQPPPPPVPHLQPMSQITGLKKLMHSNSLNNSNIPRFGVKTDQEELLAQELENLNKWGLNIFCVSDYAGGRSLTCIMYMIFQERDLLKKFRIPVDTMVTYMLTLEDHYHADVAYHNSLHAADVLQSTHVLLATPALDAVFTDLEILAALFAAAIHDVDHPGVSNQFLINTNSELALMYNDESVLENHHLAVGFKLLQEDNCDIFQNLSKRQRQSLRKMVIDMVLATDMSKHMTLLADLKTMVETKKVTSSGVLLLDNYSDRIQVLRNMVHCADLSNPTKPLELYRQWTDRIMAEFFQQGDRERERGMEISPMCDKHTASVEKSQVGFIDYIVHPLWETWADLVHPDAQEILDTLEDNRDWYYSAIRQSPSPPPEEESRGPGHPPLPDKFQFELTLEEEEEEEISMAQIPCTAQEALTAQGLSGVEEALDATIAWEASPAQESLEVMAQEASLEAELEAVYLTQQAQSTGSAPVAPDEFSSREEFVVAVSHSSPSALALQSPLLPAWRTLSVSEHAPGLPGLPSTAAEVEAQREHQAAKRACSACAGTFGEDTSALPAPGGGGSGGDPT
Format: functional
READOUT: AC50

Solved entries (count: 5):
O=C1CC[C@@]2(O)[C@H]3Cc4ccc(O)c5c4[C@@]2(CCN3CC2CC2)[C@H]1O5 [NALTREXONE] : > 30 µM
C(=N\NC1=NCCN1)/c1c2ccccc2c(/C=N/NC2=NCCN2)c2ccccc12 [BISANTRENE] : > 30 µM
CC(=O)O[C@]1(C(C)=O)CC[C@H]2[C@@H]3C[C@H](C)C4=CC(=O)CC[C@]4(C)[C@H]3CC[C@@]21C [MEDROXYPROGESTERONE ACETATE] : > 30 µM
Cc1nc(-c2ccc(OCC(C)C)c(C#N)c2)sc1C(=O)O [FEBUXOSTAT] : 29 µM
CCO[C@@H](Cc1ccc(OCCn2c(C)ccc2-c2ccc(SC)cc2)cc1)C(=O)O [SAROGLITAZAR] : 11.1 µM

Reported AC50 for C[C@@H]1C[C@H]2[C@@H]3C[C@H](F)C4=CC(=O)C=C[C@]4(C)[C@@]3(F)[C@@H](O)C[C@]2(C)[C@@]1(O)C(=O)COC(=O)C(C)(C)C [FLUMETHASONE PIVALATE] was > 30 µM

Reported AC50 for Cc1cc(O)cc(C)c1Cl [CHLOROXYLENOL] was > 30 µM

Reported AC50 for Nc1nc2c(ncn2CCC(CO)CO)c(=O)[nH]1 [PENCICLOVIR] was > 30 µM

---

Assay read-out AC50; system under study: Alpha-2A adrenergic receptor (Homo sapiens). Also: assay procedure not described here.
Sequence (P08913 whole entry): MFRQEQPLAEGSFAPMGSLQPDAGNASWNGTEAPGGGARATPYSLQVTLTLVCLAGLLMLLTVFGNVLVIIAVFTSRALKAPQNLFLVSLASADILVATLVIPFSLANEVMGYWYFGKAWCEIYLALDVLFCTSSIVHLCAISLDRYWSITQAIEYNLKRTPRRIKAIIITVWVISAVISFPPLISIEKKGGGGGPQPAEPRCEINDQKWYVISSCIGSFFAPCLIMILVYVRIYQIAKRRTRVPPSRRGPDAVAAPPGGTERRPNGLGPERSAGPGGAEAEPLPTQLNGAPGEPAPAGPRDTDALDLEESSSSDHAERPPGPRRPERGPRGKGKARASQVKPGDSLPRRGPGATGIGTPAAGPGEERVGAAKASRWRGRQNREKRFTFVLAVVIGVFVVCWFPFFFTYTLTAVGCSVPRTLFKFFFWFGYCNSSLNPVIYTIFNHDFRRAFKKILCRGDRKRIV

CCc1ccc(CCOc2ccc(CC3SC(=O)NC3=O)cc2)nc1 (stereo not given) : 7.05 µM

Bench note, Alpha-2A adrenergic receptor (Homo sapiens): entry CCC[C@@H]1C[C@@H](C(=O)N[C@@H]([C@H]2O[C@H](SC)[C@H](O)[C@@H](O)[C@H]2O)[C@H](C)Cl)N(C)C1 , its AC50 = > 10 µM

Bench note, Alpha-2A adrenergic receptor (Homo sapiens): entry Nc1nc(N)c2nc(-c3ccccc3)c(N)nc2n1 , its AC50 = > 10 µM

Bench note, Alpha-2A adrenergic receptor (Homo sapiens): entry Cc1c(C(=O)Nc2ccc(N3C[C@@H](C)O[C@@H](C)C3)nc2)cccc1-c1ccc(OC(F)(F)F)cc1 , its AC50 = > 10 µM

Bench note, Alpha-2A adrenergic receptor (Homo sapiens): entry CCOC(=O)[C@H](CCc1ccccc1)N[C@@H](C)C(=O)N1CCC[C@H]1C(=O)O , its AC50 = > 10 µM

Bench note, Alpha-2A adrenergic receptor (Homo sapiens): entry CC(C)(N)Cc1ccc(Cl)cc1 , its AC50 = > 10 µM

Bench note, Alpha-2A adrenergic receptor (Homo sapiens): entry CN1CC[C@]23CCCC[C@H]2[C@H]1Cc1ccc(O)cc13 , its AC50 = 19 µM

Bench note, Alpha-2A adrenergic receptor (Homo sapiens): entry CCN(CC)CCNC(=O)c1cc(Cl)c(N)cc1OC [METOCLOPRAMIDE] , its AC50 = 7.32 µM

Bench note, Alpha-2A adrenergic receptor (Homo sapiens): entry O=C(CCCCCCC(=O)Nc1ccccc1)NO , its AC50 = > 10 µM

Bench note, Alpha-2A adrenergic receptor (Homo sapiens): entry CCN(CC)CCOC(=O)c1ccc(N)cc1 , its AC50 = > 10 µM

---

SUBJECT_OF_TEST: UniProt P32238
Sequence (P32238 whole entry): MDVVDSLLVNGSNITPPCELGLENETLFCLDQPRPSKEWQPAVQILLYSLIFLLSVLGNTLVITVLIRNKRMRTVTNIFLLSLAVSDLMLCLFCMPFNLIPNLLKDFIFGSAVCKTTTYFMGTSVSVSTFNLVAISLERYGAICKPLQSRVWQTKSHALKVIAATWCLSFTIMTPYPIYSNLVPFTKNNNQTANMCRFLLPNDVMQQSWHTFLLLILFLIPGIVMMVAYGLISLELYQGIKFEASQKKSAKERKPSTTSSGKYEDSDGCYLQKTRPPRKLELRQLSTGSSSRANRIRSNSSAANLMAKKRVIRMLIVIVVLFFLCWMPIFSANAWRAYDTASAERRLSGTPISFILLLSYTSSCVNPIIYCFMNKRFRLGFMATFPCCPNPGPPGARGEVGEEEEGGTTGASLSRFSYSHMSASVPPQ
READOUT: AC50

Nc1nc(N)c2nc(-c3ccccc3)c(N)nc2n1 : > 30 µM
CO/N=C(\C(=O)N[C@@H]1C(=O)N2C(C(=O)[O-])=C(C[N+]3(C)CCCC3)CS[C@H]12)c1csc(N)n1 : > 300 µM
O=C1CCC(N2C(=O)c3ccccc3C2=O)C(=O)N1 (stereo not given) [THALIDOMIDE] : > 30 µM
CC(C(=O)O)c1ccc(N2CC=CC2)c(Cl)c1 (stereo not given) [PIRPROFEN] : > 30 µM

Bench note, UniProt P32238: entry Cc1ccc(C(=O)c2cc(O)c(O)c([N+](=O)[O-])c2)cc1 [TOLCAPONE] , its AC50 = > 10 µM

---

SUBJECT_OF_TEST: Muscarinic acetylcholine receptor M3 (Homo sapiens)
Sequence (P20309 whole entry): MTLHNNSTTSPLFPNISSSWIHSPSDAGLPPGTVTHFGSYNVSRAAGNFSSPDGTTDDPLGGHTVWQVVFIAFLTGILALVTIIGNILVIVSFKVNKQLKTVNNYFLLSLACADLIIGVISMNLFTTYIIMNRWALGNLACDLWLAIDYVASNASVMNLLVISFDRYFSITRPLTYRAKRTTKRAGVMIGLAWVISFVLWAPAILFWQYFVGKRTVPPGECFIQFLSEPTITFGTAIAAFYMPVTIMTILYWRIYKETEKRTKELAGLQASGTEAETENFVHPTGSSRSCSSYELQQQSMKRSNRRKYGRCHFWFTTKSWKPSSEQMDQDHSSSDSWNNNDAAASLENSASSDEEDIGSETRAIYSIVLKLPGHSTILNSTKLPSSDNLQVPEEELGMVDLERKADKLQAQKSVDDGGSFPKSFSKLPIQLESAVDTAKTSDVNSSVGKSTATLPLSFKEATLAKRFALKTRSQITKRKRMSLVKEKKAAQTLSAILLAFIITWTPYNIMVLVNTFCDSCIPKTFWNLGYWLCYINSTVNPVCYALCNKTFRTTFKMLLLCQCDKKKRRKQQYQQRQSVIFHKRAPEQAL
Recorded AC50, one value per entry.

Solved entries (count: 10):
CC(C(=O)O)c1ccc(N2CC=CC2)c(Cl)c1 (configuration not stated) [PIRPROFEN] : > 10 µM
Nc1ncnc2c1ncn2[C@@H]1O[C@H](COP(=O)(O)O)[C@@H](O)[C@H]1O [ADENOSINE PHOSPHATE] : > 30 µM
CCc1nn(CCCN2CCN(c3cccc(Cl)c3)CC2)c(=O)n1CCOc1ccccc1 [NEFAZODONE] : > 10 µM
COC(=O)N[C@H](C(=O)N[C@@H](Cc1ccccc1)[C@@H](O)CN(Cc1ccc(-c2ccccn2)cc1)NC(=O)[C@@H](NC(=O)OC)C(C)(C)C)C(C)(C)C [ATAZANAVIR] : > 30 µM
CN(CCOc1ccc(NS(C)(=O)=O)cc1)CCc1ccc(NS(C)(=O)=O)cc1 [DOFETILIDE] : > 10 µM
C#CCN[C@@H]1CCc2ccccc21 [RASAGILINE] : > 30 µM
CC(=O)OCC(=O)[C@@]12OC3(CCCC3)O[C@@H]1C[C@H]1[C@@H]3CCC4=CC(=O)C=C[C@]4(C)[C@@]3(F)[C@@H](O)C[C@@]12C [AMCINONIDE] : > 30 µM
CCCCC(C)(O)C/C=C/[C@H]1[C@H](O)CC(=O)[C@@H]1CCCCCCC(=O)OC (some centres not stated) [MISOPROSTOL] : > 30 µM
CC/C=C\C/C=C\C/C=C\CCCCCCCC(=O)O [LINOLENIC ACID] : > 30 µM
COC(=O)C1=C(C)NC(C)=C(C(=O)OC(C)C)C1c1cccc2nonc12 (configuration not stated) [ISRADIPINE] : > 30 µM

Bench note, Muscarinic acetylcholine receptor M3 (Homo sapiens): entry CN(C/C=C/c1ccccc1)Cc1cccc2ccccc12 [NAFTIFINE] , its AC50 = > 30 µM

Bench note, Muscarinic acetylcholine receptor M3 (Homo sapiens): entry CN1CC[C@]23CCCC[C@H]2[C@H]1Cc1ccc(O)cc13 [LEVORPHANOL] , its AC50 = > 30 µM

Bench note, Muscarinic acetylcholine receptor M3 (Homo sapiens): entry CC(C(=O)O)c1ccc(C(=O)c2cccs2)cc1 (configuration not stated) [SUPROFEN] , its AC50 = > 30 µM
